# MEASURED ON: human ether-à-go-go-related gene (hERG) potassium channel (human, UniProt Q12809)
# Sequence (Q12809 whole entry, looked up): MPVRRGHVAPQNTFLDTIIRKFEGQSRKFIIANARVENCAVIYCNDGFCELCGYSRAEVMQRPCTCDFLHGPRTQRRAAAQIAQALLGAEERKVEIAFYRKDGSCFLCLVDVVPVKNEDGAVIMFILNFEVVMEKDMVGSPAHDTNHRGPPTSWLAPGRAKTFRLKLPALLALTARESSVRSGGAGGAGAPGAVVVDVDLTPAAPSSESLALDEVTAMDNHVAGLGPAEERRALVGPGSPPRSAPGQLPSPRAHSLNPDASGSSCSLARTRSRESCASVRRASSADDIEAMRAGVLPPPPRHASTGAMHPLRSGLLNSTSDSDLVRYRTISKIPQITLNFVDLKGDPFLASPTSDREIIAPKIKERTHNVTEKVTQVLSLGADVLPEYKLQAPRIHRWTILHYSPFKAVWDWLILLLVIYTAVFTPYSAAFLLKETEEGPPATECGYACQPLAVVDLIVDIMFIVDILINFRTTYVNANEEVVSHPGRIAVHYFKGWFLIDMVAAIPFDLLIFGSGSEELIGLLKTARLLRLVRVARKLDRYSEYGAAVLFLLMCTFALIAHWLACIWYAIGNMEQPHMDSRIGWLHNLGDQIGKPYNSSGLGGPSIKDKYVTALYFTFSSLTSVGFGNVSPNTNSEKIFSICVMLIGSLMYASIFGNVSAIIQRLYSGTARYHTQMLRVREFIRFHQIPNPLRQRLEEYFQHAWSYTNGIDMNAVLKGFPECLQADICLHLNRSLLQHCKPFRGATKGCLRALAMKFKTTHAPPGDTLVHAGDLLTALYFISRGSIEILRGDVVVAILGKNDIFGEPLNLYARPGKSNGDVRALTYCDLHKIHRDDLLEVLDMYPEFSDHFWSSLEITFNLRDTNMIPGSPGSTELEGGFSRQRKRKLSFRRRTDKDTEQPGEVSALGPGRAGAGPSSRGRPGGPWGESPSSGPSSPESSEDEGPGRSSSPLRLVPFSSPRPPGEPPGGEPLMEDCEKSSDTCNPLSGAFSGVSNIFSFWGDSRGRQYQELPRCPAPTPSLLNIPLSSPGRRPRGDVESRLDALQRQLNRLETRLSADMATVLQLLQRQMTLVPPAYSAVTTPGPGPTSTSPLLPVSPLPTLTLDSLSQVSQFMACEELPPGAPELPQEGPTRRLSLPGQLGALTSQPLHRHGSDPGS
# ASSAY METHOD TEXT: primary screen, population patch clamp on CHO cells stably expressing hERG; higher = less effect of the substance
# Source text: Briefly, Chinese hamster ovary (CHO) cells stably expressing the hERG channel were dislodged from tissue culture flasks and dispensed into PPC plates. […] Small molecule effects on hERG current density were quantified by […].
Hit rate of the full screen: of about 310,000 compounds, about 2,200 (0.71%) showed an effect of 50% or more. The effect is printed as a negative number. For the sample, strong results were picked, then their nearest neighbours and some compounds at random.
MEASURE: hERG current change (%, negative = inhibition) at 1uM (%)
The figure you give is taken to be in %; do not add the unit.

- COMPOUND: "FC(F)(F)c1ccncc1-c1nnc(C2CCCCC2)o1"
  MEASURED ON: "human ether-à-go-go-related gene (hERG) potassium channel (human, UniProt Q12809)"
  MEASUREMENT UNITS: "%"
  ENDPOINT VALUE: 15.5
- COMPOUND: "CCCc1ncc(CN2CCCCC2C(=O)Nc2ccc(Oc3ccccc3)nc2)cn1 (centres unmarked)"
  MEASURED ON: "human ether-à-go-go-related gene (hERG) potassium channel (human, UniProt Q12809)"
  MEASUREMENT UNITS: "%"
  ENDPOINT VALUE: 12.1
- COMPOUND: "CCc1ccc2oc(-c3cc(N)ccc3Cl)nc2c1"
  MEASURED ON: "human ether-à-go-go-related gene (hERG) potassium channel (human, UniProt Q12809)"
  MEASUREMENT UNITS: "%"
  ENDPOINT VALUE: 12
- COMPOUND: "Cc1sc2ncnc(NC3CCN(Cc4ccccc4)CC3)c2c1C"
  MEASURED ON: "human ether-à-go-go-related gene (hERG) potassium channel (human, UniProt Q12809)"
  MEASUREMENT UNITS: "%"
  ENDPOINT VALUE: -56.9
- COMPOUND: "Cc1c(C(=O)NCc2ccc3c(c2)OCO3)oc2ccc(S(=O)(=O)N3CCCC3)cc12"
  MEASURED ON: "human ether-à-go-go-related gene (hERG) potassium channel (human, UniProt Q12809)"
  MEASUREMENT UNITS: "%"
  ENDPOINT VALUE: 19.4

Query: // fetch hERG current change (%, negative = inhibition) at 1uM given entry CCc1nnc(N2C(=N)SCC2=O)s1
Result: 4.71

Query: // fetch hERG current change (%, negative = inhibition) at 1uM given entry Cc1csc2ncnc(NC3CCN(Cc4ccccc4)CC3)c12
Result: -35.4

Query: // fetch hERG current change (%, negative = inhibition) at 1uM given entry COCCNC(=O)C(OC(=O)c1cc2oc(C)cc2n1C)C(C)C (centres unmarked)
Result: 7.23

These data points were gathered from paper PMC4336329.
